- STUDY_SYSTEM: apo-transferrin (apo-Tf) (Homo sapiens)
- Construct: purchased Sigma–Aldrich (Hamburg, Germany)
- Sequence (P02787 20-698): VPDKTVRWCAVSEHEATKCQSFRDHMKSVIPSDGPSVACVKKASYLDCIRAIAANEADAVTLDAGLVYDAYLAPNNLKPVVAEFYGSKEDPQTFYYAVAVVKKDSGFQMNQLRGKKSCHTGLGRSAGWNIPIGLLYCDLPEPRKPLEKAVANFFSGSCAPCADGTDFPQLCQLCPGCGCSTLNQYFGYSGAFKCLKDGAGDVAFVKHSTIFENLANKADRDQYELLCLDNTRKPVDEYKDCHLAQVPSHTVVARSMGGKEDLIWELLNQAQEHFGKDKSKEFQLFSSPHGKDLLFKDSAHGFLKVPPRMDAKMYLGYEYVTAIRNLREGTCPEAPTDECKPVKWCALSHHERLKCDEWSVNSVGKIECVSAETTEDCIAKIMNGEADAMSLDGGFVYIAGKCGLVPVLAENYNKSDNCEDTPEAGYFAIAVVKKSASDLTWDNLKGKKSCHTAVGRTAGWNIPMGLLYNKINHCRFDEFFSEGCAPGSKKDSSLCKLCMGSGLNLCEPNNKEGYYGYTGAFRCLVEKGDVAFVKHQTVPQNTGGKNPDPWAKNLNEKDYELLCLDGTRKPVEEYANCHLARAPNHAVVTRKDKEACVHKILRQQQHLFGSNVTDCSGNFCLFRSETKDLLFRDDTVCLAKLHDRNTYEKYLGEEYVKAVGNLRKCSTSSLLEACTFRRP
- ASSAY_PROCEDURE: Fluorescence quenching of apo-transferrin
- Format: binding
- RECORDED_CONDITIONS: apo-Tf 3.6 × 10^−6 M, 50 mM phosphate buffer pH 7.4, excitation 295 nm, Stern–Volmer
MEASURED_METRIC: Ksv (apo-Tf fluorescence quenching) (M⁻¹)
Note: unit M⁻¹ is implicit; provide only the numeric part.

Known Ksv (apo-Tf fluorescence quenching) results, listed for orientation:
COMPOUND	VAL
CCn1cc(C(=O)O)c(=O)c2cc(F)c(N3CCN(CP(c4ccccc4)c4ccccc4)C(C)C3)c(F)c21 (stereo not shown)	152
Cc1c(C)c(C)[c-](C)c1C.O=C(O)c1cn(C2CC2)c2cc(N3CCN(C[P+](c4ccccc4)(c4ccccc4)[Ir]([Cl])[Cl])CC3)c(F)cc2c1=O	21800
CC1CN(c2c(F)c(N)c3c(=O)c(C(=O)O)cn(C4CC4)c3c2F)CC(C)N1C[P+](c1ccccc1)(c1ccccc1)[Ir]([Cl])[Cl].Cc1c(C)c(C)[c-](C)c1C (stereo not shown)	13200
CCn1cc(C(=O)O)c(=O)c2cc(F)c(N3CCN(C[P+](c4ccccc4)(c4ccccc4)[Ir]([Cl])[Cl])CC3)cc21.Cc1c(C)c(C)[c-](C)c1C	20200
CC1CN(c2c(F)c(N)c3c(=O)c(C(=O)O)cn(C4CC4)c3c2F)CC(C)N1CP(c1ccccc1)c1ccccc1 (stereo not shown)	11000

Task: API: value(readout= Ksv (apo-Tf fluorescence quenching), system= apo-transferrin (apo-Tf) (Homo sapiens), query= CCn1cc(C(=O)O)c(=O)c2cc(F)c(N3CCN(C[P+](c4ccccc4)(c4ccccc4)[Ir]([Cl])[Cl])C(C)C3)c(F)c21.Cc1c(C)c(C)[c-](C)c1C (racemic) )
Output: 19900

Task: Thanks! And CCn1cc(C(=O)O)c(=O)c2cc(F)c(N3CCN(CP(c4ccccc4)c4ccccc4)CC3)cc21 ?
Output: 45.6
